Data origin, for the record: patent US11716992B2

System: wheat Gibberella zeae
assay_text: microbe, parasite or virus in culture
Assay type: cell-based
details: Fusarium graminearum, read-out: fungicidal activity (growth inhibition rate), GZ, 50 μg/mL
measured_attribute: inhibition at 50 µg/mL (%)
Just the number please, in %, no unit attached.

Example entries and their recorded answers appear below.
compound | value
C=CC[C@@H]1C[C@]2(O[Si](C)(C)CC=C)CCO[C@@]23CC[C@H](O[Si](C)(C)CC=C)C[C@@H]13 [Zyj07-48] | 7
CCOC(=O)C(C(=O)OCC)C1CC(=O)[C@@]2(O)CC=CC[C@H]12 (some centres unmarked) [Zyj06-113-2] | 0

Can you look up inhibition at 50 µg/mL on wheat Gibberella zeae for C=CC[C@@H]1C[C@]2(O)CCO[C@@]23C[C@@H](Cl)[C@H](O)C[C@H]13 [Zyj07-100] ?
13
